Values from paper PMC7562955

# assay_name: Solubility measurement in isotonic buffer
# Format: physicochemical
# measurement_context: isotonic disodium hydrogen phosphate/citric acid buffer, 25 °C, aqueous buffer, kinetic from dmso stock; pH 7.4 buffer
Measured solubility at 90 min accompanies every entry in the list below.
measured_quantity: solubility at 90 min

mol	measured_quantity	reported_result
CCOc1nc(N)c2nc(-c3cncc(F)c3)n(Cc3ccc(CN4C[C@@H]5C[C@H]4CN5C)cc3)c2n1	solubility at 90 min	> 150 µg/mL
CCCCOc1nc(N)c2nc(-c3cccnc3)n(Cc3ccccc3)c2n1	solubility at 90 min	0.3 µg/mL
CCOc1nc(C)c2nc(-c3cncc(F)c3)n(Cc3ccc(CN4C[C@@H]5C[C@H]4CN5C)cc3)c2n1	solubility at 90 min	> 150 µg/mL

----------
# target_system: TLR7 (Homo sapiens, UniProt Q9NYK1)
# Sequence (Q9NYK1 27-1049): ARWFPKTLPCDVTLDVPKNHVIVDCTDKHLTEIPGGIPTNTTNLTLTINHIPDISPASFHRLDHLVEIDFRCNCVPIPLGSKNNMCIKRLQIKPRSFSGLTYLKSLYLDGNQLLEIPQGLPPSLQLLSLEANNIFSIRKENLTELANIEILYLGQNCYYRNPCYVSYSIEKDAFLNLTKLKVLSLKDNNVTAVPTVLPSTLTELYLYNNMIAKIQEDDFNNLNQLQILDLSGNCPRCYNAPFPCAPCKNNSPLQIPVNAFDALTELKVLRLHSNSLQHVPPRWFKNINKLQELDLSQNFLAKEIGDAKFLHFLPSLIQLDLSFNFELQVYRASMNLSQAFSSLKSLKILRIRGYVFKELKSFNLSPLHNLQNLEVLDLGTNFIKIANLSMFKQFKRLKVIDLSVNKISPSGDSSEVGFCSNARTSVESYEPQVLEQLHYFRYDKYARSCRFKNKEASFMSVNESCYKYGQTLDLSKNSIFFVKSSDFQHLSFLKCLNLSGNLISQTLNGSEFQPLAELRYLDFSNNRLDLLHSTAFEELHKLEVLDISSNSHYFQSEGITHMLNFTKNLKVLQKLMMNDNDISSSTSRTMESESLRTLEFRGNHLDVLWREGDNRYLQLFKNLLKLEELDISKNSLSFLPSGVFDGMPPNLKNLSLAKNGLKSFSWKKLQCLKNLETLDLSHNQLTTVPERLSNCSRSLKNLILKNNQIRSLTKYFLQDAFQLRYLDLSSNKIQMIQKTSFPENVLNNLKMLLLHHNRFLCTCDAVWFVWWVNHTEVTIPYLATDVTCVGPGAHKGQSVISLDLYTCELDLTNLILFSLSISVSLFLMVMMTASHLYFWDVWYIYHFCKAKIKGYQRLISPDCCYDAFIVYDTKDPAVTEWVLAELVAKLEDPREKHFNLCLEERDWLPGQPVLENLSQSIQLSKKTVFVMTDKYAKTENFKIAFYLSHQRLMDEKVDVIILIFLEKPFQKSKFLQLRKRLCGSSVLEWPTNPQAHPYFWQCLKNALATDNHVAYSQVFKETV
# assay_name: Human TLR7 reporter gene inhibitory activity assay (NF-κB/SEAP HEK293)
# Assay type: cell-based
# Set-up: host or cells: HEK293 (TLR7/NF-κB/SEAPorter)
# measurement_context: compound 0.03 nM (as headed); R848 200 nM
Measured human TLR7 activity, reporter signal accompanies every entry in the list below.
measured_quantity: human TLR7 activity, reporter signal

molecule	reported_result
CCN(CCO)CCCC(C)Nc1ccnc2cc(Cl)ccc12 (stereo not shown) [HCQ, hydroxychloroquine, reference compound]	1.684
CCOc1nc(C)c2nc(-c3cncc(F)c3)n(Cc3ccc(CN4C[C@@H]5C[C@H]4CN5C)cc3)c2n1	0.5917
CCOc1nc(N)c2nc(-c3cncc(F)c3)n(Cc3ccc(CN4C[C@@H]5C[C@H]4CN5C)cc3)c2n1	0.8446
CCCCOc1nc(N)c2nc(-c3cccnc3)n(Cc3ccccc3)c2n1	1.853

----------
# target_system: TLR7 (Homo sapiens)
# assay_name: Human TLR7 reporter gene agonistic activity assay
# Assay type: cell-based
# Parameters: host or cells: HEK293 (TLR7/NF-κB/SEAPorter)
# measurement_context: compound 10 nM (as headed)
Measured activation of human TLR7, reporter signal accompanies every entry in the list below.
measured_quantity: activation of human TLR7, reporter signal

molecule	target_system	reported_result
CCCCOc1nc(N)c2nc(-c3cccnc3)n(Cc3ccccc3)c2n1	TLR7 (Homo sapiens)	-0.0852
CCOc1nc(N)c2nc(-c3cncc(F)c3)n(Cc3ccc(CN4C[C@@H]5C[C@H]4CN5C)cc3)c2n1	TLR7 (Homo sapiens)	-0.1166
CCOCc1nc2c(N)nc3ccccc3c2n1CC(C)(C)O [R848, reference compound]	TLR7 (Homo sapiens)	3.25
CCOc1nc(C)c2nc(-c3cncc(F)c3)n(Cc3ccc(CN4C[C@@H]5C[C@H]4CN5C)cc3)c2n1	TLR7 (Homo sapiens)	-0.1036

----------
# target_system: TLR7 (Homo sapiens)
# assay_name: Human TLR7 reporter gene inhibitory activity assay (NF-κB/SEAP HEK293)
# Assay type: cell-based
# Set-up: host or cells: HEK293 (TLR7/NF-κB/SEAPorter)
# measurement_context: compound 100 nM (as headed); R848 200 nM
# Protocol: Compounds were dissolved in dimethyl sulfoxide. […] The plates were then incubated an additional 20 ± 1 h at 37 °C in 5% CO2 and then the secreted embryonic alkaline phosphatase (SEAP) activity was measured as activation of human TLR7, 8, and 9. […]
Measured human TLR7 activity, reporter signal accompanies every entry in the list below.
measured_quantity: human TLR7 activity, reporter signal

compound	measured_quantity	reported_result
CCCCOc1nc(N)c2nc(-c3cccnc3)n(Cc3ccccc3)c2n1	human TLR7 activity, reporter signal	0.7605
CCOc1nc(C)c2nc(-c3cncc(F)c3)n(Cc3ccc(CN4C[C@@H]5C[C@H]4CN5C)cc3)c2n1	human TLR7 activity, reporter signal	-0.01692
CCOc1nc(N)c2nc(-c3cncc(F)c3)n(Cc3ccc(CN4C[C@@H]5C[C@H]4CN5C)cc3)c2n1	human TLR7 activity, reporter signal	-0.04843
CCN(CCO)CCCC(C)Nc1ccnc2cc(Cl)ccc12 (stereo not shown) [HCQ, hydroxychloroquine, reference compound]	human TLR7 activity, reporter signal	0.0133
